TARGET_OR_TEST_SYSTEM: HLA-B*39:01
EXPERIMENTAL_PROTOCOL: IEDB peptide-MHC binding, purified MHC/direct/fluorescence; filed as Kd, often an IC50 or EC50 that approximates it; bounds were set here for any values at or beyond the usual limits of such assays
TEST_SETTINGS: source organism: Mammarenavirus lassaense
MEASURED_ATTRIBUTE: pKd
The read-out pKd is expressed as -log10 of concentration in moles per litre.

(Q) Consider the sequence shown here: IEEVMNIVL What is its recorded pKd?
(A) 6.02

----------
TARGET_OR_TEST_SYSTEM: HLA-A*69:01
EXPERIMENTAL_PROTOCOL: IEDB peptide-MHC binding, purified MHC/direct/fluorescence; filed as Kd, often an IC50 or EC50 that approximates it; bounds were set here for any values at or beyond the usual limits of such assays
TEST_SETTINGS: source organism: Rickettsia australis
MEASURED_ATTRIBUTE: Kd

(Q) Reported Kd for ATYGTAVNK : what is it?
(A) ≥ 20 µM

----------
TARGET_OR_TEST_SYSTEM: HLA-A*23:01
EXPERIMENTAL_PROTOCOL: IEDB peptide-MHC binding, purified MHC/competitive/radioactivity; filed as Kd, often an IC50 or EC50 that approximates it; bounds were set here for any values at or beyond the usual limits of such assays
TEST_SETTINGS: source organism: Mammarenavirus lassaense
MEASURED_ATTRIBUTE: pKd
Quick note: pKd means taking -log10 of the concentration in moles per liter.

(Q) What pKd value was documented for this sequence, RYWYLNHTV ?
(A) 7.82

----------
TARGET_OR_TEST_SYSTEM: HLA-B*58:01
EXPERIMENTAL_PROTOCOL: IEDB peptide-MHC binding, purified MHC/competitive/fluorescence; filed as Kd, often an IC50 or EC50 that approximates it; bounds were set here for any values at or beyond the usual limits of such assays
TEST_SETTINGS: source organism: Salmonella enterica subsp. enterica serovar Typhi
The entries below are paired with their reported Kd.
Write the answer as a number in nM, unit excluded.

>  <SEQUENCE_TEXT>
LSEEANWAF

>  <TARGET_OR_TEST_SYSTEM>
HLA-B*58:01

>  <Kd [nM]>
498

$$$$

API: the following record is the query input.
(Q) Look up Kd for this sequence: ASIADILTY
(A) 20.7

----------
TARGET_OR_TEST_SYSTEM: HLA-B*44:03
EXPERIMENTAL_PROTOCOL: IEDB peptide-MHC binding, purified MHC/competitive/fluorescence; bounds were set here for any values at or beyond the usual limits of such assays
TEST_SETTINGS: source organism: Homo sapiens
pIC50: −log10 of the molar value.
MEASURED_ATTRIBUTE: pIC50

(Q) pIC50 for MVRVLTVIKEY ?
(A) ≤ 4.70

----------
TARGET_OR_TEST_SYSTEM: HLA-A*23:01
EXPERIMENTAL_PROTOCOL: IEDB peptide-MHC binding, purified MHC/competitive/fluorescence; filed as Kd, often an IC50 or EC50 that approximates it; bounds were set here for any values at or beyond the usual limits of such assays
TEST_SETTINGS: source organism: Rickettsia bellii RML369-C
MEASURED_ATTRIBUTE: Kd (nM)
Number in nM, nothing else.

(Q) Bench note: what Kd did VMLQIPFYK show?
(A) 308

----------
Catalogue of Kd readings, one per entry.
TARGET_OR_TEST_SYSTEM: HLA-B*08:01
EXPERIMENTAL_PROTOCOL: IEDB peptide-MHC binding, purified MHC/competitive/radioactivity; filed as Kd, often an IC50 or EC50 that approximates it; bounds were set here for any values at or beyond the usual limits of such assays
TEST_SETTINGS: source organism: Dengue virus 4 Philippines/H241/1956
Lab book: enter the figure in nM, no units written.

>  <SEQUENCE_TEXT>
KMKKKTWLV

>  <UNITS_TEXT>
nM

>  <Kd>
93.5

$$$$
>  <SEQUENCE_TEXT>
RRVTRKHMIL

>  <UNITS_TEXT>
nM

>  <Kd>
64

$$$$

Read the next record carefully.
(Q) Would you kindly share the measured Kd for ISKVRSNAA ?
(A) 7.31

----------
TARGET_OR_TEST_SYSTEM: HLA-A*03:01
EXPERIMENTAL_PROTOCOL: IEDB peptide-MHC binding, purified MHC/competitive/radioactivity; filed as Kd, often an IC50 or EC50 that approximates it; bounds were set here for any values at or beyond the usual limits of such assays
TEST_SETTINGS: source organism: Mammarenavirus machupoense
pKd: −log10 of the molar value.
MEASURED_ATTRIBUTE: pKd

Some solved cases for reference:
>  <SEQUENCE_TEXT>
EKFGHFCKYH

>  <pKd>
≤ 4.15

$$$$
>  <SEQUENCE_TEXT>
LNNSFYYMR

>  <pKd>
≤ 4.11

$$$$

Proceed to the following item.
(Q) # value lookup — system HLA-A*03:01, readout pKd, item SSVSVLMKEH
(A) 4.75

----------
TARGET_OR_TEST_SYSTEM: HLA-B*27:05
EXPERIMENTAL_PROTOCOL: IEDB peptide-MHC binding, purified MHC/direct/fluorescence; filed as Kd, often an IC50 or EC50 that approximates it; bounds were set here for any values at or beyond the usual limits of such assays
TEST_SETTINGS: source organism: Vibrio cholerae
pKd: −log10 of the molar value.
MEASURED_ATTRIBUTE: pKd

(Q) Query: pKd; subject: RPRIRLSAP
(A) ≤ 4.70

----------
TARGET_OR_TEST_SYSTEM: HLA-A*02:03
EXPERIMENTAL_PROTOCOL: IEDB peptide-MHC binding, purified MHC/direct/fluorescence; filed as Kd, often an IC50 or EC50 that approximates it; bounds were set here for any values at or beyond the usual limits of such assays
TEST_SETTINGS: source organism: Vibrio vulnificus YJ016
MEASURED_ATTRIBUTE: Kd

(Q) What measured Kd goes with MKYVWPPIM ?
(A) ≥ 20 µM

----------
TARGET_OR_TEST_SYSTEM: HLA-A*31:01
EXPERIMENTAL_PROTOCOL: IEDB peptide-MHC binding, purified MHC/competitive/radioactivity; filed as Kd, often an IC50 or EC50 that approximates it; bounds were set here for any values at or beyond the usual limits of such assays
TEST_SETTINGS: source organism: Mammarenavirus lassaense
MEASURED_ATTRIBUTE: pKd
Please note pKd is a logarithmic value: minus log10 of concentration in mol/L. Answer with that number alone.

(Q) Please state recorded pKd (tested on HLA-A*31:01) of QCKDLCHMH
(A) 6.28

----------
TARGET_OR_TEST_SYSTEM: HLA-A*03:01
EXPERIMENTAL_PROTOCOL: IEDB peptide-MHC binding, purified MHC/competitive/radioactivity; filed as Kd, often an IC50 or EC50 that approximates it; bounds were set here for any values at or beyond the usual limits of such assays
TEST_SETTINGS: source organism: Mammarenavirus brazilense
MEASURED_ATTRIBUTE: pKd
Answer as the number alone; pKd is minus log10 of concentration in mol/L.

(Q) Return reported pKd; argument: MVNHSTYYVH
(A) 5.00

----------
TARGET_OR_TEST_SYSTEM: HLA-B*51:01
EXPERIMENTAL_PROTOCOL: IEDB peptide-MHC binding, purified MHC/direct/fluorescence; filed as Kd, often an IC50 or EC50 that approximates it; bounds were set here for any values at or beyond the usual limits of such assays
TEST_SETTINGS: source organism: Yersinia pestis
MEASURED_ATTRIBUTE: Kd

(Q) If you can, please state the reported Kd value of LPLEFWQAW .
(A) ≥ 20 µM

----------
TARGET_OR_TEST_SYSTEM: HLA-B*45:06
EXPERIMENTAL_PROTOCOL: IEDB peptide-MHC binding, purified MHC/competitive/fluorescence; filed as Kd, often an IC50 or EC50 that approximates it; bounds were set here for any values at or beyond the usual limits of such assays
TEST_SETTINGS: source organism: Yellow fever virus
MEASURED_ATTRIBUTE: Kd

(Q) // lookup Kd | system=HLA-B*45:06 | key= MVIFFMSPK
(A) ≥ 5 µM

----------
TARGET_OR_TEST_SYSTEM: HLA-A*11:01
EXPERIMENTAL_PROTOCOL: IEDB peptide-MHC binding, purified MHC/direct/fluorescence; filed as Kd, often an IC50 or EC50 that approximates it; bounds were set here for any values at or beyond the usual limits of such assays
TEST_SETTINGS: source organism: Yersinia pestis
Listed sequences paired with reported Kd

>  <SEQUENCE_TEXT>
RQLESRLGY

>  <Kd>
0.13 µM

$$$$
>  <SEQUENCE_TEXT>
MQLQLNCAY

>  <Kd>
≥ 20 µM

$$$$

(Q) Look up Kd for this sequence: AMQDPNPEV
(A) ≥ 20 µM

Recorded values, source the Immune Epitope Database (IEDB).
